# target.desc: Delta Opioid Receptor (Rattus norvegicus, UniProt P33533)
# Construct: the forebrains were homogenized in Tris buffer in a Teflon®-glass homogenizer; from tissue; host or cells: forebrain of male Wistar rats, particulate membrane preparation
# Sequence (P33533 whole entry): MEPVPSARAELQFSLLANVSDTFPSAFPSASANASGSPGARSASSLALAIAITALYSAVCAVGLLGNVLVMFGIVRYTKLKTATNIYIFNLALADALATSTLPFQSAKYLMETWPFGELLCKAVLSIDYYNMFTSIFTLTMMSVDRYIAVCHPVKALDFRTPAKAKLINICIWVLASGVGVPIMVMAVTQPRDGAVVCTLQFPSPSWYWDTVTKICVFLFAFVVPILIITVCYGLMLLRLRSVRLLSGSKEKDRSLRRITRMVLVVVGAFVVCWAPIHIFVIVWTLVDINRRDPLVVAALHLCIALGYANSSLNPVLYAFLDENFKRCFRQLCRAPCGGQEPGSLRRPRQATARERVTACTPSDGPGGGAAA
# protocol.text: Rat brain delta opioid receptor binding assay ([3H]DPDPE or [3H]naltrindole)
# condition.notes: rat forebrain membranes, ~4 nM [3H]DPDPE; read-out: δ-binding (DPDPE ligand) Ki
Records here are stratified by Ki; strata: Low (below 200 nM), Medium (200 nM to below 1000 nM), High (1000 nM or more)

Worked cases, answers included:
1) COc1ccc(Oc2ccc(NCC3CNC3)c(Oc3ccc(OC)cc3)c2)cc1 [Cpd 58]    Medium
2) COc1ccc(Oc2ccc(NC3CC4CCC(C3)N4)c(Oc3ccc(OC)cc3)c2)cc1 (stereo not drawn) [Cpd 57]    High
3) CCN(CC)C(=O)c1ccc(NC[C@@H]2CCCN2)c(Oc2ccccc2OC)c1 [Cpd 11]    Low
4) CNCCN(CCNC)c1ccc(Oc2ccc(OC)cc2)cc1Oc1ccc(OC)cc1 [Cpd 64]    High
5) COc1ccc(Oc2ccc(N(CC3CNC3)CC3CNC3)c(Oc3ccc(OC)cc3)c2)cc1 [Cpd 59]    High

Band of COc1ccc(Oc2ccc(NC3CN4CCC3CC4)c(Oc3ccc(OC)cc3)c2)cc1 (stereo not drawn) [Cpd 60] ?
Low

Which class does COc1ccc(Oc2cc(-c3noc(=O)[nH]3)ccc2NC[C@@H]2CCCN2)cc1 [Cpd 48] fall in?
Medium

Band of COc1ccc(Oc2ccc(NC[C@@H](N)CO)c(Oc3ccc(OC)cc3)c2)cc1 [Cpd 55] ?
High

---

# target.desc: δ-opioid receptor (Mus musculus)
# protocol.text: [35S]GTPγS δ-opioid receptor functional assay (EC50, relative efficacy, % inhibition)
# Type: biochemical
# Design: NG108-15 cell membranes were purchased from Applied Cell Sciences (Rockville, Md.)
# condition.notes: read-out: GTPγS δ-opioid receptor % Inh @10 μM
metric: inhibition at 10 µM (%)
// units = %; emit number, no label

1) COc1ccc(Oc2ccc(NCC3CCCNC3)c(Oc3ccc(OC)cc3)c2)cc1 (racemic)    16.1
2) COc1ccc(Oc2ccc(NC[C@@H]3CCCN3)c(Oc3ccc(OC)cc3)c2)cc1    28.2
3) CCN(CC)C(=O)CCc1ccc(NC[C@@H]2CCCN2)c(Oc2ccc(OC)cc2)c1    22.8
4) Clc1cccc(Cl)c1Oc1cc(-c2ccccc2)ccc1NC[C@@H]1CCCN1    23.4
5) COc1ccc(Oc2cc(-c3ccccc3)ccc2NC[C@@H]2CCCN2)cc1    1
6) Oc1ccc(Oc2cc(-c3cccnc3)ccc2NC[C@@H]2CCCN2)cc1    35.6

Look up inhibition at 10 µM: NC(=O)c1cccc(Oc2cc(-c3ccccc3)ccc2NC[C@@H]2CCCN2)c1
36.5

Look up inhibition at 10 µM for this compound: CCN(CC)C(=O)/C=C/c1ccc(NC[C@@H]2CCCN2)c(Oc2ccc(OC)cc2)c1
2.26

Give its inhibition at 10 µM value. Item: COc1ccc(Oc2ccc(NC3CCCC(N)C3)c(Oc3ccc(OC)cc3)c2)cc1 (centres unmarked)
1.73

Can you look up the measured inhibition at 10 µM of COc1ccc(Oc2cc(-c3cccnc3)ccc2NC[C@@H]2CCCN2)cc1 for me?
13.4

Query (compound): CNCCNc1ccc(Oc2ccc(OC)cc2)cc1Oc1ccc(OC)cc1 ; field requested: inhibition at 10 µM
26

---

# target.desc: δ-opioid receptor (Mus musculus, UniProt P32300)
# Sequence (P32300 whole entry): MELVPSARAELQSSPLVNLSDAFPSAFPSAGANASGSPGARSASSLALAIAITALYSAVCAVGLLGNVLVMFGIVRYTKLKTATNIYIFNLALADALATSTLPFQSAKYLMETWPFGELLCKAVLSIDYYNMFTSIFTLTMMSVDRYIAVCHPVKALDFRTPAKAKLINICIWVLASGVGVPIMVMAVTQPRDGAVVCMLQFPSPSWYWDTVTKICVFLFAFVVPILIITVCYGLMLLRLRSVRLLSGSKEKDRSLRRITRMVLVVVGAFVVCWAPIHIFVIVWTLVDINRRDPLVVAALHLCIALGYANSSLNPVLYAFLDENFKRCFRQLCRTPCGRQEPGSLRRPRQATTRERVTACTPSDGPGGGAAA
# protocol.text: [35S]GTPγS binding assay in NG108-15 cell membranes (delta opioid functional assay), 200 nM screen
# Assay type: biochemical
# Set-up: NG108-15 cell membranes were purchased from Applied Cell Sciences (Rockville, Md.); host or cells: NG108-15 cell membranes (purchased)
# condition.notes: 200 nM compound, relative to calculated max of SNC80 dose response
The reader will find reported GTPγS δ-RelEfficacy @200 nM values listed item by item below.
Give your answer as a number; write no unit.

Known GTPγS δ-RelEfficacy @200 nM results, listed for orientation:
1) COc1ccc(Oc2cc(-c3cncc(F)c3)ccc2NC[C@@H]2C[C@@H](F)CN2)cc1    0.78
2) COc1ccc(Oc2cc(-c3cncc(C#N)c3)ccc2NC[C@@H]2CCCN2)cc1    0.45
3) COc1ccc(Oc2cc(-c3cncnc3)ccc2NC[C@@H]2CCCN2)cc1    0.39
4) COc1ccc(Oc2cc(-c3cncc(SC)c3)ccc2NC[C@@H]2C[C@@H](F)CN2)cc1    0.7
5) COc1ccc(Oc2cc(-c3cncc(C#N)c3)ccc2NC[C@@H]2C[C@@H](F)CN2)cc1    1.01

Proceed to the following item.
Can you share its GTPγS δ-RelEfficacy @200 nM? I mean this compound: COc1ccc(Oc2cc(-c3cncc(F)c3)ccc2NC[C@@H]2CCCN2)cc1
0.43

---

EC50 for assorted molecules
# target.desc: UniProtKB P32300
# protocol.text: [35S]GTPγS δ-opioid receptor functional assay (EC50, relative efficacy, % inhibition)
# Type: biochemical
# Set-up: NG108-15 cell membranes were purchased from Applied Cell Sciences (Rockville, Md.)

1) COc1ccc(Oc2ccc(NC3CCCC(N)C3)c(Oc3ccc(OC)cc3)c2)cc1 (stereo not shown)    381 nM
2) COc1ccc(Oc2cc(-c3cncc(C#N)c3)ccc2NC[C@@H]2C[C@@H](F)CN2)cc1    46.1 nM

Returns the measured EC50 for the input molecule. Input: COc1ccc(Oc2cc(-c3cncc(F)c3)ccc2NC[C@@H]2C[C@@H](F)CN2)cc1
92.4 nM

Endpoint output: EC50 of CCN(CC)C(=O)/C=C/c1ccc(NC[C@@H]2CCCN2)c(Oc2ccc(OC)cc2)c1 . Value?
109 nM

---

# target.desc: Delta Opioid Receptor (Rattus norvegicus)
# Construct: the forebrains were homogenized in Tris buffer in a Teflon®-glass homogenizer; from tissue; host or cells: forebrain of male Wistar rats, particulate membrane preparation
# protocol.text: Rat brain delta opioid receptor binding assay ([3H]DPDPE or [3H]naltrindole)
# condition.notes: rat forebrain membranes, 0.25 nM [3H]naltrindole; read-out: δ-binding (Naltrindole ligand) Ki
Measured pKi by item
In simple prose, pKi is minus the logarithm base ten of a concentration in moles per litre.

Example entries begin here.
1) O=C(O)c1cccc(Oc2cc(-c3ccccc3)ccc2NC[C@@H]2CCCN2)c1    5.57
2) O=C(O)c1ccc(Oc2cc(-c3ccccc3)ccc2NC[C@@H]2CCCN2)cc1    5.11
3) COc1ccc(Oc2cc(-c3ccccc3)ccc2NC2CCNCC2)cc1    6.34
4) COc1ccc(Oc2cc(CCc3cccc(F)c3)ccc2NC[C@@H]2CCCN2)cc1    6.64
5) COc1ccc(Oc2cc(-c3cncc(OC)c3)ccc2NC[C@@H]2C[C@@H](F)CN2)cc1    6.00
6) NC(=O)c1cccc(Oc2cc(-c3ccccc3)ccc2NC[C@@H]2CCCN2)c1    6.90
7) Clc1ccc(Oc2cc(-c3ccccc3)ccc2NC[C@@H]2CCCN2)c(Cl)c1    6.16
8) COc1ccc(Oc2cc(-c3cccc4ccccc34)ccc2NC[C@@H]2CCCN2)cc1    6.52

Sample FC(F)(F)Oc1ccc(Oc2cc(-c3ccccc3)ccc2NC[C@@H]2CCCN2)cc1 — what was its pKi?
5.83

Form field: reported pKi of c1ccc(Oc2cc(-c3ccccc3)ccc2NC[C@@H]2CCCN2)cc1
6.95

Which pKi value belongs to CCN(CC)C(=O)c1cccc(CCc2ccc(NC[C@@H]3CCCN3)c(Oc3ccc(OC)cc3)c2)c1 ?
6.90

I would be grateful if you could share the reported pKi for COc1ccc(Oc2cc(-c3ccccc3)ccc2N2CCN(C)CC2)cc1 .
5.65

If you can, please state the reported pKi value of COc1ccc(Oc2cc(CCc3cccc(OC)c3)ccc2NC[C@@H]2CCCN2)cc1 .
6.68

// query pKi value for entry Fc1ccc(Oc2cc(-c3ccccc3)ccc2NC[C@@H]2CCCN2)cc1
6.38

Dear colleague, I am looking for the recorded pKi of the following molecule: CCN(CC)C(=O)CCc1ccc(NC[C@@H]2CCCN2)c(Oc2ccc(OC)cc2)c1
7.58

---

# target.desc: δ-opioid receptor (Mus musculus, UniProt P32300)
# protocol.text: [35S]GTPγS δ-opioid receptor functional assay (EC50, relative efficacy, % inhibition)
# Assay type: biochemical
# Set-up: NG108-15 cell membranes were purchased from Applied Cell Sciences (Rockville, Md.)
metric: GTPγS δ-opioid receptor Rel Efficacy

Data request, read-out GTPγS δ-opioid receptor Rel Efficacy, for CCN(CC)C(=O)/C=C/c1ccc(NC[C@@H]2CCCN2)c(Oc2ccc(OC)cc2)c1
0.8328

Consider the compound COc1ccc(Oc2cc(-c3cncc(F)c3)ccc2NC[C@@H]2CCCN2)cc1 and give its measured GTPγS δ-opioid receptor Rel Efficacy.
1.0908

// lookup GTPγS δ-opioid receptor Rel Efficacy for COc1ccc(Oc2cc(-c3cncc(SC)c3)ccc2NC[C@@H]2C[C@@H](F)CN2)cc1
1.0716
